These entries and their values trace back to patent US20260365647A1.

Biological target: AKT1-E17K (Homo sapiens, UniProt P31749, E17K)
Sequence (P31749 whole entry E17K): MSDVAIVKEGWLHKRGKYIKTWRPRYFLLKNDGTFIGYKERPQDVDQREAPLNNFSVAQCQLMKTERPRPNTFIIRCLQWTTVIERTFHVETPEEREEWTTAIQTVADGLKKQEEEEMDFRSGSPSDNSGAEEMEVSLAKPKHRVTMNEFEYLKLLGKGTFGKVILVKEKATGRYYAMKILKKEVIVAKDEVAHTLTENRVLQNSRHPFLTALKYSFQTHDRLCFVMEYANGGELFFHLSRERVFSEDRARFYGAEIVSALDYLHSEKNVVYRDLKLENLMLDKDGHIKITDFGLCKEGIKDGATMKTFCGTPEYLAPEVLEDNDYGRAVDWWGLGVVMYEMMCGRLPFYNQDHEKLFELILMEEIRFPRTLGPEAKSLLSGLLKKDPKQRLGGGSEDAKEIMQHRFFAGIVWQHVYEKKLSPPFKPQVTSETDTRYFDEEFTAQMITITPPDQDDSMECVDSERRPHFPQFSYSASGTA
Experiment: NanoBRET Target Engagement (TE) Assay
Reported IC50 values follow for various molecules

Example cases with answers are listed next.
| molecule | outcome-measure | val |
| --- | --- | --- |
| Nc1ncccc1-c1nc2ccc(-c3ccccc3)nc2n1-c1ccc(CN2CCC(NC(=O)c3ccc(C=O)c(O)c3)CC2)cc1 [Example 8] | IC50 | 60 to 600 nM |
| Nc1ncccc1-c1nc2ccc(-c3ccccc3)nc2n1-c1ccc(CN2CC3(CCN(C(=O)c4ccc(C=O)c(O)c4)C3)C2)cc1 [Example 93] | IC50 | 60 to 600 nM |
| Nc1ncccc1-c1nc2ccc(-c3ccccc3)nc2n1-c1ccc(CN2CCC3(CC2)CCN(C(=O)c2ccc(O)c(C=O)c2)CC3)cc1 [Example 77] | IC50 | 60 to 600 nM |
| Nc1ncccc1-c1nc2ccc(-c3ccccc3)nc2n1-c1ccc(CN2CCC(Nc3ccc(O)c(C=O)c3)CC2)cc1 [Example 48] | IC50 | 60 to 600 nM |
| N#Cc1ccc(-c2ccc3nc(-c4cccnc4N)n(-c4ccc(CN5CCN(C(=O)c6ccc(C=O)c(O)c6)CC5)cc4)c3n2)cc1 [Example 39] | IC50 | 60 to 600 nM |

Could you now consider this next molecule?
Lookup: Look up IC50 for this molecule: Nc1ncccc1-c1nc2ccc(-c3ccccc3F)nc2n1-c1ccc(CN2CCN(C(=O)c3ccc(C=O)c(O)c3)CC2)cc1 [Example 142]
Found: > 600 nM
